pIC50 values by entry
TARGET_SYSTEM: RORγt (Homo sapiens, UniProt P51449)
Construct: […]
Sequence (P51449 269-508 limits assumed): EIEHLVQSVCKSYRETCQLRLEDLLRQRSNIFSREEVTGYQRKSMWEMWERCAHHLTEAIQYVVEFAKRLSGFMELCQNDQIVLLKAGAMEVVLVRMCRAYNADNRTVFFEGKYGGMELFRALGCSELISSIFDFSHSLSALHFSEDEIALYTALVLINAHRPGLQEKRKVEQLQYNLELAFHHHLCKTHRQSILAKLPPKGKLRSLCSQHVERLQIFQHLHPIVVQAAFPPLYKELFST
TEST: Fluorescence resonance energy transfer (FRET) test, inhibitory activity of RORγt
Type: biochemical
COND: FRET, B-RORγt LBD / Biotin-SRC1; read-out: IC50
Note on units: pIC50 is unitless, being -log10 of a concentration expressed in mol/L.

Some solved cases for reference:
Value of pIC50 reported for the compound CCOC[C@H]1CC[C@@H](c2ccc(C(F)(F)F)cc2)CN1c1ccc(C(=O)N[C@H](CC#N)c2ccc(S(=O)(=O)CC)cc2)cc1 [Example 108-2] is 7.62

Measured pIC50, CCS(=O)(=O)c1ccc([C@H](CC#N)NC(=O)c2ccc(N3CCC(Oc4ccc(C(F)(F)F)cc4)C3)c(F)c2)cc1 (stereo in doubt) [Example 83] : 7.04

In the following, a different compound is considered.
The recorded pIC50 for CCS(=O)(=O)c1ccc([C@H](CC#N)NC(=O)c2ccc(N3C[C@@H](Oc4ccc(OC(F)(F)F)nc4)C[C@H]3COC(F)F)cc2)cc1 [Example 11] is 7.57
